- test_system: HLA-A*30:02
- protocol_details: IEDB peptide-MHC binding, purified MHC/competitive/radioactivity; filed as Kd, often an IC50 or EC50 that approximates it; bounds were set here for any values at or beyond the usual limits of such assays
- measurement_setup: source organism: Mammarenavirus lassaense
Provide the recorded Kd for the entries that follow.
Only the number, expressed in µM, is required.

Task: Provide measured Kd value, entry: ASPILRFLY
Output: 0.0974

Task: Provide measured Kd value, entry: AGFAAGLTY
Output: 0.178

Task: Provide measured Kd value, entry: YFESYVRPFV
Output: 4.25

* * *

Provide the recorded Kd for the entries that follow.
- test_system: HLA-B*07:02
- protocol_details: IEDB peptide-MHC binding, purified MHC/competitive/radioactivity; filed as Kd, often an IC50 or EC50 that approximates it; bounds were set here for any values at or beyond the usual limits of such assays
- measurement_setup: source organism: Triticum aestivum

Task: Provide measured Kd value, entry: LPAMCNVY
Output: ≥ 21.2 µM

Task: Provide measured Kd value, entry: FPGQQQPF
Output: ≥ 37.4 µM
